- Test system: MCF7 breast cancer cells
- protocol_details: MTT assay, MCF7
- measurement_context: read-out: MTT cell proliferation mortality assay (%) MCF7; at 100 μg/ml, 72 h
# Lookup of reported cytotoxicity keyed by entry

COc1ccc(-c2c(Cl)n(-c3ccc(Cl)cc3Cl)c3ncnc(NN)c23)cc1OC [Compound 14b]; 80 to 95%

The measured cytotoxicity associated with NNc1nc(C(Cl)(Cl)Cl)nc2c1c(-c1ccc(Br)cc1)c(Cl)n2-c1ccc(Cl)cc1Cl reads 80 to 95%

The measured cytotoxicity associated with COc1nc(C(Cl)(Cl)Cl)nc2c1c(-c1ccc(Br)cc1)c(Cl)n2-c1ccc(Cl)cc1Cl reads 80 to 95%

The measured cytotoxicity associated with COc1ccc(-c2c(Cl)n(-c3ccc(Cl)cc3Cl)c3ncnc(N4CCCC4)c23)cc1OC [Compound 11b] reads 80 to 95%

The measured cytotoxicity associated with COc1ccc(-c2c(Cl)n(-c3ccc(Cl)cc3Cl)c3ncnc(Cl)c23)cc1OC reads 80 to 95%

###

- System: PC3 prostate cancer cells
- protocol_details: MTT assay, PC3
- measurement_context: Homo sapiens, 72 h, read-out: IC50 PC3
parameter: IC50 (µg/mL)
// return numeric value only (unit: µg/mL, not printed)

Solved entries (count: 3):
Clc1ccc(-n2c(Cl)c(-c3ccc(Br)cc3)c3c(N4CCCC4)nc(C(Cl)(Cl)Cl)nc32)c(Cl)c1 [Compound 10]; 11.6
COc1cccc2c1C(=O)c1c(O)c3c(c(O)c1C2=O)C[C@@](O)(C(=O)CO)C[C@@H]3O[C@H]1C[C@H](N)[C@H](O)[C@H](C)O1 [Dox, Doxorubicin, reference compound]; 23.8
Cc1nc2c(c(-c3ccc(Br)cc3)cn2-c2ccc(Cl)cc2Cl)c(=O)[nH]1 [Compound 6]; 31.1

The measured IC50 associated with COc1ccc(-c2c(Cl)n(-c3ccc(Cl)cc3Cl)c3ncnc(N4CCOCC4)c23)cc1OC [Compound 18b] reads 19.2

The measured IC50 associated with COc1ccc(-c2c(Cl)n(-c3ccc(Cl)cc3Cl)c3ncnc(Cl)c23)cc1OC [Compound 4b] reads 28.5

The measured IC50 associated with CN1CCN(c2nc(C(Cl)(Cl)Cl)nc3c2c(-c2ccc(Br)cc2)c(Cl)n3-c2ccc(Cl)cc2Cl)CC1 [Compound 17] reads 66.8

The measured IC50 associated with COc1ccc(-c2c(Cl)n(-c3ccc(Cl)cc3Cl)c3ncnc(NN)c23)cc1OC [Compound 14b] reads 18.7

The measured IC50 associated with COc1ccc(-c2c(Cl)n(-c3ccc(Cl)cc3Cl)c3ncnc(N4CCCC4)c23)cc1OC [Compound 11b] reads 27.7

###

- Tested on: HCT116 colorectal cancer cells
- protocol_details: MTT assay, HCT116
- measurement_context: read-out: MTT cell proliferation mortality assay (%) HCT116; at 100 μg/ml, 72 h
parameter: cytotoxicity (%)
// return numeric value only (unit: %, not printed)

Solved entries (count: 2):
COc1ccc(-c2c(Cl)n(-c3ccc(Cl)cc3Cl)c3ncnc(Cl)c23)cc1OC [Compound 4b]; 90.2
COc1nc(C(Cl)(Cl)Cl)nc2c1c(-c1ccc(Br)cc1)c(Cl)n2-c1ccc(Cl)cc1Cl [Compound 8]; 80

Attention now turns to another entry.
The measured cytotoxicity associated with O=c1[nH]cnc2c1c(-c1ccc(Br)cc1)cn2-c1ccc(Cl)cc1Cl [Compound 3a] reads 84.3
